The origin of these recorded values is PubChem BioAssay (NCI).

- Test system: SK-OV-3 ovarian
- METHOD DESCRIPTION: NCI tumour cell line growth inhibition, 48 h
MEASURE NAME: TGI

Report TGI for `COC(=O)[C@H](CC(C)C)NC(=O)NC(=O)NC(=O)CI` tested on SK-OV-3 ovarian.
31.8 µM

Report TGI for `Cc1cc2c(cc1C)[n+](=O)c(C(=O)N1CCN(c3ccc([N+](=O)[O-])cc3)CC1)c(C)n2[O-]` tested on SK-OV-3 ovarian.
51.2 µM

Report TGI for O=C(O)C1c2ccccc2C(C(=O)O)c2ccccc21 (stereo unspecified) tested on SK-OV-3 ovarian.
> 100 µM

***
Report TGI for `CC1(C)CN=C(Nc2ccc(Cl)cc2)S1` tested on SK-OV-3 ovarian.
> 100 µM
